assay: Solubility of mono-fumarate Form A estimated by solvent addition, visual assessment; format: physicochemical; conditions: MTBE, organic solvent or mixture, thermodynamic from solid, MTBE; read-out: Solubility
Structures can show the parent of a compound that is named as a salt.
result type: solubility

Problem: Quick one: solubility of Cc1cc(NC(=O)[C@H](O)c2cc(F)cc(F)c2)ccc1-c1cnc(N)c(C(=O)NC(C)C)c1 [Form A of the mono-fumarate salt] ?
Solution: > 4200 µg/mL

---

experiment: Solubility study of Form A of the compound of formula (I) in solvents (aliquot addition, visual); assay type: physicochemical; conditions: organic solvent or mixture, thermodynamic from solid; acetone, room temperature; read-out: Approximate Solubility
result type: solubility

Problem: # solubility lookup, item Cc1cc(NC(=O)[C@H](O)c2cc(F)cc(F)c2)ccc1-c1cnc(N)c(C(=O)NC(C)C)c1 [Form A of the compound of formula (I)]
Solution: > 115 mg/mL

---

test: Solubility study of Form A of the compound of formula (I) in solvents (aliquot addition, visual); type: physicochemical; conditions: organic solvent or mixture, thermodynamic from solid; ethanol, room temperature; read-out: Approximate Solubility
result type: solubility (mg/mL)
I only need the number, in mg/mL, no unit after it.

Problem: Given the molecule Cc1cc(NC(=O)[C@H](O)c2cc(F)cc(F)c2)ccc1-c1cnc(N)c(C(=O)NC(C)C)c1 [Form A of the compound of formula (I)] , what is its reported solubility?
Solution: 49

---

Assay: Solubility of hemi-fumarate Form A by visual assessment upon solvent addition
Type: physicochemical
Settings: THF, organic solvent or mixture, thermodynamic from solid, THF; read-out: Solubility
Procedure: The solubility of the Form A of the hemi-fumarate salt was evaluated by visual assessment of samples upon solvent addition, employing organic solvents and water. Among the solvents, the Form A of the hemi-fumarate salt had the highest solubility in THF, MeOH, EtOH and acetone (>50 mg/mL).
Where a name gives a salt, the structure may show the parent alone.
result type: solubility

Problem: GET /values?readout=solubility&item= Cc1cc(NC(=O)[C@H](O)c2cc(F)cc(F)c2)ccc1-c1cnc(N)c(C(=O)NC(C)C)c1 [Form A of the hemi-fumarate salt]
Solution: > 50 mg/mL

---

assay: Phase 1a study: pharmacokinetics after oral BID dosing in subjects with advanced solid tumors; assay type: in vivo, human; conditions: human, in vivo, po, 25 mg, 25 mg twice daily oral, Cycle 1 Day 21, N = 3; interpret with caution, terminal elimination phase not well captured; read-out: t1/2 (converted)
Structures can show the parent of a compound that is named as a salt.
result type: half-life (h)
The reply should contain only the number, in h.

Problem: State the recorded half-life for this entry: Cc1cc(NC(=O)[C@H](O)c2cc(F)cc(F)c2)ccc1-c1cnc(N)c(C(=O)NC(C)C)c1 [Form A of the hemi-fumarate salt]
Solution: 16

---

experiment: Phase 1a study: pharmacokinetics after oral BID dosing in subjects with advanced solid tumors; format: in vivo, human; details: human, in vivo, po, 600 mg, 600 mg single oral dose, Cycle 1 Day 1, point estimate, N = 1; read-out: AUC0-12
Counter-ions that a name gives are not always drawn.
result type: AUC(0-t)

Problem: I have this compound here, Cc1cc(NC(=O)[C@H](O)c2cc(F)cc(F)c2)ccc1-c1cnc(N)c(C(=O)NC(C)C)c1 [Form A of the hemi-fumarate salt] , and I need its recorded AUC(0-t).
Solution: 11600 ng·h/mL
